Reported Tubulin Assay: percent inhibition at 10 μM based on 30 minute data values for the following compounds.
system: bovine tubulin; experiment: In vitro tubulin polymerization assay (turbidity at 340 nm); format: biochemical; details: 10 μM compound, 30 minute data point, vs 1% DMSO control
Field: numeric (%). Do not append units.

// solved cases for Tubulin Assay: percent inhibition at 10 μM based on 30 minute data follow
{"compound": "COc1ccc(CNc2ncccc2-c2nnc(Nc3ccc4c(c3)OCO4)o2)cc1OC", "tested-on": "bovine tubulin", "reported-result": 90}
{"compound": "COc1cc(Nc2ncccc2-c2nnc(Nc3ccc4c(c3)OCO4)o2)cc(OC)c1", "tested-on": "bovine tubulin", "reported-result": 45}

Consider the compound O=[N+]([O-])c1cc(C(F)(F)F)ccc1-c1nnc(Nc2ccc3c(c2)OCO3)[nH]1 [Compound 124b] and give its recorded Tubulin Assay: percent inhibition at 10 μM based on 30 minute data. 26

Supply reported Tubulin Assay: percent inhibition at 10 μM based on 30 minute data belonging to this compound: FC(F)(F)c1ccc(-c2nnc(Nc3ccc4c(c3)OCO4)[nH]2)c(NCc2ccncc2)c1 93

Look up and report measured Tubulin Assay: percent inhibition at 10 μM based on 30 minute data for this entry: COc1ccc(OC)c(Nc2nnc(-c3cccnc3NCc3cccnc3)[nH]2)c1 22

State, in one line, measured Tubulin Assay: percent inhibition at 10 μM based on 30 minute data of CS(=O)(=O)c1ccc(-c2nnc(-c3cccnc3NCc3ccc(F)c(F)c3)[nH]2)cc1 88

Supply reported Tubulin Assay: percent inhibition at 10 μM based on 30 minute data belonging to this compound: CS(=O)(=O)c1ccc(-c2nnc(-c3ccccc3NCc3ccc4c(c3)OCO4)[nH]2)cc1 86

Check the records and state Tubulin Assay: percent inhibition at 10 μM based on 30 minute data for COc1cccc(Nc2nnc(-c3cccnc3NCc3ccc4c(c3)CCO4)[nH]2)c1 91

---

test system: bovine tubulin; test: In vitro tubulin polymerization assay (turbidity at 340 nm); format: biochemical; conditions: 10 μM compound, 30 minute data point, vs 1% DMSO control
quantity: Tubulin Assay: percent inhibition at 10 μM based on 30 minute data (%)
State just the number; it will be interpreted in %.

Example cases with answers are listed next.
{"molecule": "COc1ccc(CNc2ncccc2-c2nnc(Nc3ccc4c(c3)OCO4)o2)cc1 [Compound 157]", "unit-annotation": "%", "reported-result": 92}
{"molecule": "COc1cccc(Nc2nnc(-c3cccnc3Nc3cc(OC)cc(OC)c3)[nH]2)c1 [Compound 2]", "unit-annotation": "%", "reported-result": 80}

In one line, give reported Tubulin Assay: percent inhibition at 10 μM based on 30 minute data of the entry COc1cc(Nc2ncccc2-c2nnc(Nc3ccc4c(c3)OCCO4)[nH]2)cc(OC)c1 [Compound 50] . 90

For the molecule CN(C)c1ccc(Nc2nnc(-c3cccnc3Nc3ccc4c(c3)OCO4)[nH]2)cc1 [Compound 11] , give its measured Tubulin Assay: percent inhibition at 10 μM based on 30 minute data value. 82

Please indicate Tubulin Assay: percent inhibition at 10 μM based on 30 minute data recorded for CS(=O)(=O)c1ccc(-c2nnc(-c3cccnc3Nc3cccc(S(N)(=O)=O)c3)[nH]2)cc1 [Compound 92] 74

---

system: A431, human epidermoid carcinoma cells; assay: Cell cycle analysis (FACS), mitotic arrest in G2/M; type: cell-based; conditions: Homo sapiens, A-431, 24 h, read-out: FACS Assay: concentration required to achieve inhibition in FACS assay
quantity: minimal effective concentration

Below, each entry is followed by its recorded minimal effective concentration result.
{"molecule": "Fc1cccc(CNc2ncccc2-c2nnc(Nc3ccc4c(c3)OCCO4)o2)c1 [Compound 168]", "reported-result": "0.1 µM"}
{"molecule": "COc1cccc(Nc2nnc(-c3ccccc3NCc3ccncc3)[nH]2)c1 [Compound 115]", "reported-result": "1 µM"}
{"molecule": "c1cnc(NCc2ccc3c(c2)OCO3)c(-c2nnc(Nc3ccc4c(c3)OCCO4)o2)c1 [Compound 195]", "reported-result": "0.01 µM"}
{"molecule": "COc1cc(Nc2ncccc2-c2nnc(Nc3cccc([N+](=O)[O-])c3)[nH]2)cc(OC)c1 [Compound 60a]", "reported-result": "0.1 µM"}
{"molecule": "CS(=O)(=O)c1ccc(-c2nnc(-c3cccnc3NCc3ccco3)[nH]2)cc1 [Compound 98]", "reported-result": "1 µM"}
{"molecule": "COc1cccc(Nc2nnc(-c3cccnc3NCc3ccncc3)[nH]2)c1 [Compound 39]", "reported-result": "0.1 µM"}
{"molecule": "c1cnc(NCc2ccc3c(c2)OCO3)c(-c2nnc(Nc3ccc4c(c3)OCO4)o2)c1 [Compound 181]", "reported-result": "1 µM"}

Turning now to a further record.
Identify measured minimal effective concentration corresponding to COc1cccc(-c2nnc(-c3cccnc3NCc3cccnc3)[nH]2)c1 [Compound 85] 1 µM
